Target: human CB2R (Homo sapiens)
Construct: host or cells: CHO cells
Sequence (P34972 whole entry): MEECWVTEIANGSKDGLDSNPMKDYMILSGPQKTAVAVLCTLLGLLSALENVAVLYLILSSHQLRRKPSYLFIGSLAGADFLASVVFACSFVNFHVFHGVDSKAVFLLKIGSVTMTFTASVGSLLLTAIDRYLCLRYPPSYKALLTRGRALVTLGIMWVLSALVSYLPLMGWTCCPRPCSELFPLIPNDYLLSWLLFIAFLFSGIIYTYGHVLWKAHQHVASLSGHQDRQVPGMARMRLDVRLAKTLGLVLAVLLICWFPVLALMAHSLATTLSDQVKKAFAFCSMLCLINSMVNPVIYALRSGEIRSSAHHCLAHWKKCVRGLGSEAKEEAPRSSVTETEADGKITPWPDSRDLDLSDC
Test: CB2R mediated modulation of cAMP synthesis
Type: cell-based
Details: qualitative statement; found 'through the use of the above described assays'; CHO cells expressing human CB2R, forskolin-stimulated cAMP
Measure: agonistic activity

Consider the reported agonistic activity for these compounds:
| Compound | Measure | Meas Value |
| --- | --- | --- |
| O[C@H](CNCc1cnc2ccccc2c1)c1ccccc1 [Example 22] | agonistic activity | agonistic activity |
| Cc1ccc(C)c(Nc2ccc(CN(C)CC(O)c3ccccc3)cc2)c1 (centres unmarked) [Example 1] | agonistic activity | agonistic activity |
| CN(Cc1ccc(S(=O)(=O)c2ccccc2)cc1)C[C@H](O)c1ccccc1 [Example 17] | agonistic activity | agonistic activity |
| CN(Cc1ccc(Oc2ccccc2)cc1)C[C@H](O)c1ccccc1 [Example 19] | agonistic activity | agonistic activity |

Moving on to another compound below.
# input Lab note: human CB2R (Homo sapiens) assay, enter agonistic activity for Cc1ccc(Cl)c(Nc2ccc(CN(C)CC(O)c3ccccc3)cc2)c1 (centres unmarked) [Example 3] here
# output agonistic activity
